Test system: mouse SGLT2 mRNA
PROCEDURE TEXT: Mouse SGLT2 mRNA levels in kidney, MOE versus Methyleneoxy BNA gapmers, Balb/c mice (Example 15, Table 69)
Type: in vivo
CONDITION NOTES: 25 nmol/kg i.p. twice per week for three weeks
Strand notation (5' to 3'): a small letter for the sugar, then the base; units joined by * are phosphorothioate-linked, units joined directly phosphodiester-linked; [ ] holds rarer units or linkages, { } end groups; capitals alone tell only the bases. e = 2'-O-(2-methoxyethyl) (MOE); l = locked nucleic acid (LNA); [5mC] = 5-methylcytosine; d = 2'-deoxy (DNA)
EXPERIMENTAL READOUT: SGLT2 mRNA, percent change relative to saline treated animals

SUBSTANCE | MEASUREMENT TARGET | VAL
ISIS 379692: SGLT2; 1-10-1 MOE gapmer (antisense eT*dG*dT*dT*d[5mC]*d[5mC]*dA*dG*d[5mC]*d[5mC]*d[5mC]*eA) | mouse SGLT2 mRNA | −46 percent change
ISIS 392170: SGLT2; 1-10-1 Methyleneoxy BNA Gapmer (antisense lT*dG*dT*dT*d[5mC]*d[5mC]*dA*dG*d[5mC]*d[5mC]*d[5mC]*lA) | mouse SGLT2 mRNA | −54 percent change
ISIS 392173: SGLT2; 2-8-2 Methyleneoxy BNA Gapmer (antisense lT*lG*dT*dT*d[5mC]*d[5mC]*dA*dG*d[5mC]*d[5mC]*l[5mC]*lA) | mouse SGLT2 mRNA | −57 percent change
ISIS 388625: SGLT2; TGTTCCAGCCCA 2-8-2 MOE Gapmer (antisense eT*eG*dT*dT*d[5mC]*d[5mC]*dA*dG*d[5mC]*d[5mC]*e[5mC]*eA) | mouse SGLT2 mRNA | −47 percent change

###

System: PCSK9 mRNA
Format: cell-based, human
CONDITION NOTES: Hep3B cells, 100 nM, relative to untreated control cells; 0 = no reduction observed
Strand notation (5' to 3'): a small letter for the sugar, then the base; units joined by * are phosphorothioate-linked, units joined directly phosphodiester-linked; [ ] holds rarer units or linkages, { } end groups; capitals alone tell only the bases. e = 2'-O-(2-methoxyethyl) (MOE); [5mC] = 5-methylcytosine; d = 2'-deoxy (DNA)
Measured % Inhib (PCSK9 mRNA) of individual entries

SUBSTANCE | RESULT UNIT | % Inhib (PCSK9 mRNA)
400349 (antisense e[5mC]*eT*dG*dG*dA*dG*d[5mC]*dA*dG*d[5mC]*dT*d[5mC]*eA*eG) [compound 400349] | % | 13
400333 (eT*e[5mC]*dA*dG*dG*dG*dA*dA*d[5mC]*d[5mC]*dA*dG*eG*e[5mC]; antisense) [compound 400333] | % | 0
400339 (eT*eG*dG*dT*d[5mC]*d[5mC]*dT*d[5mC]*dA*dG*dG*dG*eA*eA; antisense) [compound 400339] | % | 0
400364 (antisense eT*e[5mC]*d[5mC]*dG*dG*d[5mC]*dA*dG*d[5mC]*dA*dG*dA*eT*eG) [compound 400364] | % | 0
400331 (eG*e[5mC]*d[5mC]*dA*d[5mC]*dG*dT*dG*dG*dG*d[5mC]*dA*eG*e[5mC]; antisense) [compound 400331] | % | 35
400370 (antisense eG*e[5mC]*d[5mC]*dG*dG*d[5mC]*dT*d[5mC]*d[5mC]*dG*dG*d[5mC]*eA*eG) [compound 400370] | % | 13

Data credit: patent US8188059B2
